- EXPERIMENTAL TARGET: NCAP (SARS-CoV-2, UniProt P0DTC9)
- PROTOCOL: EMSA
METRIC NAME: Kd (nM)
The response must be a number in nM with no trailing unit.

Prompt: Assign Kd to the following record: GGCUGUGUGGCUGUCACUCGGCUGCAUGCUUAGUGCACUCACGCAG (structured_RNA) [SL4]
Completion: 356
